Recorded pIC50, one value per entry.
Target: NRAS Q61R (Homo sapiens, UniProt P01111+P62937, Q61R)
Sequence (P01111 whole entry Q61R): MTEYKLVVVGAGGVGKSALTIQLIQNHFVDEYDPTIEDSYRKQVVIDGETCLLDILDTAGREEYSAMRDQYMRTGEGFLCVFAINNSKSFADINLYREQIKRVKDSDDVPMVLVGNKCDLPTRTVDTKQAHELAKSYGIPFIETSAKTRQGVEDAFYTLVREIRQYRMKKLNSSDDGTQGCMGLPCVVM
Sequence (P62937 whole entry): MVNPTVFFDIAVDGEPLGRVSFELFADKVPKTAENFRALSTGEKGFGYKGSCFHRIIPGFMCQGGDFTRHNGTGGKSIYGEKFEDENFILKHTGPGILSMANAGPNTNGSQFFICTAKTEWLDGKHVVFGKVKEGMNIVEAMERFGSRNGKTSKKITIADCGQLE
Experiment: Disruption of BRAF RBD interaction with Ras (FRET / MOA assay, with Cyclophilin A)
Format: biochemical
Details: NRAS Q61R; read-out: NRAS Q61R FRET data IC50
pIC50: −log10 of the molar value.

molecule | pIC50
CCn1c(-c2cccnc2[C@H](C)OC)c2c3cc(ccc31)-c1csc(n1)C[C@H](NC(=O)[C@@H](OC(=O)N1CC(OC)C1)C(C)C)C(=O)N1CCC[C@H](N1)C(=O)OCC(C)(C)C2 | 6.00 to 7.00
CCn1c(-c2cccnc2[C@H](C)OC)c2c3cc(ccc31)-c1csc(n1)C[C@H](NC(=O)[C@H](C(C)C)N(C)C(=O)N1CCCC13COC3)C(=O)N1CCC[C@H](N1)C(=O)OCC(C)(C)C2 (atropisomer, axis not shown) | 7.00 to 8.00
